Molecular target: Avi-tagged FL MALT-1 (Homo sapiens (Human), UniProt Q9UDY8)
Sequence (Q9UDY8 whole entry): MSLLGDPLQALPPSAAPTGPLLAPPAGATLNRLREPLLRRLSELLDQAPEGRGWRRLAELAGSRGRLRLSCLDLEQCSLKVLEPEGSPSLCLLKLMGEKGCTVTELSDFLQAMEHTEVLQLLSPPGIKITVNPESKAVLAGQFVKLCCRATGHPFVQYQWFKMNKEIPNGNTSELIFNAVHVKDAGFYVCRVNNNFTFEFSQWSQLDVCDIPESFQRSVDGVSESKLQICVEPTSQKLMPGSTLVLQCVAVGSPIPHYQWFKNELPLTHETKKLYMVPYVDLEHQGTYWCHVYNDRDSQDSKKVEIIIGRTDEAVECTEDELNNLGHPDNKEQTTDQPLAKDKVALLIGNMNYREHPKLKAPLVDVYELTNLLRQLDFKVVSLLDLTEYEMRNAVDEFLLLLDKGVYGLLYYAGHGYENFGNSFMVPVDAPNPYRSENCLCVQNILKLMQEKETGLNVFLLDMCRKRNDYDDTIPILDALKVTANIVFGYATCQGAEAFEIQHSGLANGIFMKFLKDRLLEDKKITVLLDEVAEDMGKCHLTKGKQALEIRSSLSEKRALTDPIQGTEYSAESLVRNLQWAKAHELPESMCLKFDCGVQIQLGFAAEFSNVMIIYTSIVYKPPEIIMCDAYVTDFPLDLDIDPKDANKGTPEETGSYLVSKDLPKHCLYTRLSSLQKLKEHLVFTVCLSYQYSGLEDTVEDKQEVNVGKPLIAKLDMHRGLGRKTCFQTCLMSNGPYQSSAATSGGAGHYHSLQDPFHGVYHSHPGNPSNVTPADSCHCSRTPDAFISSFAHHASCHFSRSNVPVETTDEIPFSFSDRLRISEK
Assay: MALT-1 Fluorogenic Peptide Cleavage Assay (MALT1 inhibition assay)
Assay type: biochemical
Settings: Ac-LRSR-AMC peptide substrate, 30 min pre-incubation, 90 min reaction at room temperature
pIC50: −log10 of the molar value.
readout-type: pIC50

compound: Cn1ncc2cccc(NS(=O)(=O)c3cnn(-c4cc(N5CC(C#N)C5)ccn4)c3)c21
pIC50: < 5.60

compound: Cn1ncc2cccc(NS(=O)(=O)c3cnn(-c4cc(C5(C#N)CCCC5)ccn4)c3)c21
pIC50: < 5.60

compound: Cn1ncc2ccc(C3CC3)c(NS(=O)(=O)c3cnn(-c4ccnc(C(F)(F)F)c4)c3)c21
pIC50: ≥ 6.40

compound: CCCc1ccc2cnn(C)c2c1NS(=O)(=O)c1cnn(-c2ccnc(C(F)(F)F)c2)c1
pIC50: ≥ 6.40

// recorded pIC50 for COc1ccc2cnn(C)c2c1NS(=O)(=O)c1cnn(-c2cc(N3CCCC3)ccn2)c1 : 6.00 to 6.40

// recorded pIC50 for CCC(O)(CC)c1ccnc(-n2cc(S(=O)(=O)Nc3c(OC)ccc4cnn(C)c34)cn2)c1 : 6.00 to 6.40

// recorded pIC50 for Cn1ncc2cccc(NS(=O)(=O)c3cnn(-c4cc(C5(C#N)CC5)ccn4)c3)c21 : < 5.60

// recorded pIC50 for CCc1ccc2cnn(C)c2c1NS(=O)(=O)c1cnn(-c2cc(C(F)(F)F)ccn2)c1 : ≥ 6.40

// recorded pIC50 for Cn1ncc2cccc(NS(=O)(=O)c3cnn(-c4cc(N5CCC5)ccn4)c3)c21 : < 5.60

====

System: NF-kB reporter in Jurkat cells
Assay: NF-kB reporter assay in Jurkat cells stimulated with aCD3/aCD28/PMA
Assay type: cell-based
Conditions: Homo sapiens; Jurkat cells, 1 hr compound pre-incubation, aCD3/aCD28/PMA stimulation 4 hr, One-Glo readout; read-out: NF-kB Reporter Assay IC50
readout-type: IC50

molecule: CC[C@](C)(O)c1ccnc(-n2cc(S(=O)(=O)Nc3cccc4cnn(C)c34)cn2)c1 [Compound I-294]
readout-type: IC50
reported: < 400 nM
//
molecule: COCC(COC)(OC)c1ccnc(-n2cc(S(=O)(=O)Nc3cccc4cnn(C)c34)cn2)c1 [Compound I-259]
readout-type: IC50
reported: 1000 to 2500 nM

// recorded IC50 for COc1ccc2cnn(C)c2c1NS(=O)(=O)c1cnn(-c2cc(N3CC(F)C3)ccn2)c1 [Compound I-442] : < 400 nM

// recorded IC50 for C=Cn1cc2cccc(NS(=O)(=O)c3cnn(-c4cc(C(F)(F)F)ccn4)c3)c2n1 [Compound I-357] : > 2500 nM

// recorded IC50 for [2H]c1nn(C([2H])([2H])[2H])c2c(NS(=O)(=O)c3cnn(-c4cc(C(C)(F)F)ccn4)c3)cccc12 [Compound I-380] : < 400 nM

// recorded IC50 for Cc1c(S(=O)(=O)Nc2cccc3cnn(C)c23)cnn1-c1cc(C(F)(F)F)ccn1 [Compound I-137] : < 400 nM

====

System: NF-kB reporter in Jurkat cells
Assay: NF-kB reporter assay in Jurkat cells stimulated with aCD3/aCD28/PMA
Format: cell-based
Settings: Homo sapiens; Jurkat cells, 1 hr compound pre-incubation, aCD3/aCD28/PMA stimulation 4 hr, One-Glo readout; read-out: NF-kB Reporter Assay IC50
readout-type: IC50

Here are 3 molecules together with their reported answers.
molecule: [2H]C([2H])([2H])Oc1ccc2cnn(C([2H])([2H])[2H])c2c1NS(=O)(=O)c1cnn(-c2cc(C(F)(F)F)ccn2)c1
target: NF-kB reporter in Jurkat cells
IC50: < 400 nM

molecule: COc1ncc2cnn(C)c2c1NS(=O)(=O)c1cnn(-c2cc(N3CC4CC4C3)ccn2)c1 (stereo not drawn)
target: NF-kB reporter in Jurkat cells
IC50: < 400 nM

molecule: O=S(=O)(c1cnn(-c2cc(C(F)(F)F)ccn2)c1)N1CCCc2ccc3cn[nH]c3c21
target: NF-kB reporter in Jurkat cells
IC50: > 2500 nM

Known value: NF-kB reporter in Jurkat cells IC50 of the molecule COc1ncc2cnn(C)c2c1NS(=O)(=O)c1cnn(-c2cc(C3(F)COC3)ccn2)c1 equals < 400 nM

Known value: NF-kB reporter in Jurkat cells IC50 of the molecule Cn1ncc2ccc(C3CC3)c(NS(=O)(=O)c3cnn(-c4cc(C(F)(F)F)ncn4)c3)c21 equals < 400 nM

Known value: NF-kB reporter in Jurkat cells IC50 of the molecule COc1ncc2cnn(C)c2c1NS(=O)(=O)c1cnn(-c2cc(C3(OC)COC3)ccn2)c1 equals < 400 nM

Known value: NF-kB reporter in Jurkat cells IC50 of the molecule COc1ncc2cnn(C)c2c1NS(=O)(=O)c1cnn(-c2cc(N3CC(C)(C)C3)ccn2)c1 equals < 400 nM

Known value: NF-kB reporter in Jurkat cells IC50 of the molecule COc1ccc2cnn(C)c2c1NS(=O)(=O)c1cnn(-c2cc(N3CC[C@H](C)C3)ccn2)c1 equals < 400 nM

Known value: NF-kB reporter in Jurkat cells IC50 of the molecule Cn1ncc2cccc(NS(=O)(=O)c3cnn(-c4cc(C5(F)CC(F)C5)ccn4)c3)c21 (stereo not drawn) equals < 400 nM

Known value: NF-kB reporter in Jurkat cells IC50 of the molecule COC[C@H](O)c1ccnc(-n2cc(S(=O)(=O)Nc3cccc4cnn(C)c34)cn2)c1 equals 400 to 1000 nM

Known value: NF-kB reporter in Jurkat cells IC50 of the molecule CCc1ccc2cn(C)nc2c1NS(=O)(=O)c1cnn(-c2ccnc(C(F)(F)F)c2)c1 equals > 2500 nM

Known value: NF-kB reporter in Jurkat cells IC50 of the molecule CCc1ccc2cnn(C)c2c1NS(=O)(=O)c1cnn(-c2cc(C3CC3)ccn2)c1 equals < 400 nM

====

Tested on: NF-kB reporter in Jurkat cells
Assay: NF-kB reporter assay in Jurkat cells stimulated with aCD3/aCD28/PMA
Assay type: cell-based
Conditions: Homo sapiens; Jurkat cells, 1 hr compound pre-incubation, aCD3/aCD28/PMA stimulation 4 hr, One-Glo readout; read-out: NF-kB Reporter Assay IC50
Protocol: Jurkat cells were maintained in complete RPMI 1640 media supplemented with 10% FBS. Prior to the assay, 120 nL of the serial diluted compound was added in each well of 384-well flat bottom white plate (Corning #3570) by using liquid handler Echo550. […] The plate was left at room temperature for 5 min and the signal was measured on EnVision (PerkinElmer). Compounds in which an IC50 was not measured are designated as “N/A”.
# reported IC50; entries follow

Here are 3 compounds together with their reported answers.
mol: CC(C)Oc1ccc2cnn(C)c2c1NS(=O)(=O)c1cnn(-c2ccnc(C(F)(F)F)c2)c1
IC50: 400 to 1000 nM
//
mol: C[C@@H]1CN(c2ccnc(-n3cc(S(=O)(=O)Nc4cccc5cnn(C)c45)cn3)c2)C(=O)O1
IC50: < 400 nM
//
mol: COc1ccc2cnn(C)c2c1NS(=O)(=O)c1cnn(-c2cc(N3CC(F)(F)C3)ccn2)c1
IC50: < 400 nM

Next compound, please.
// recorded IC50 for CN1CCC[C@@H](n2cc(S(=O)(=O)Nc3cccc4cnn(C)c34)cn2)C1 : > 2500 nM

====

Biological target: Avi-tagged FL MALT-1 (Homo sapiens (Human), UniProt Q9UDY8)
# reported IC50; entries follow

Here are 5 compounds together with their reported answers.
compound: COc1ccc2cnn(C)c2c1NS(=O)(=O)c1cnn(-c2cc(C3(OC)CC(C)C3)ccn2)c1 (centres unmarked) [Compound I-142]
target: Avi-tagged FL MALT-1 (Homo sapiens (Human), UniProt Q9UDY8)
IC50: 0.4 to 1 µM
--
compound: COC[C@](C)(F)c1ccnc(-n2cc(S(=O)(=O)Nc3cccc4cnn(C)c34)cn2)c1 [Compound I-330]
target: Avi-tagged FL MALT-1 (Homo sapiens (Human), UniProt Q9UDY8)
IC50: > 2.5 µM
--
compound: COc1ccc2cnn(C)c2c1NS(=O)(=O)c1cnn(-c2cc(N3CCC4(CC4)C3)ccn2)c1 [Compound I-433]
target: Avi-tagged FL MALT-1 (Homo sapiens (Human), UniProt Q9UDY8)
IC50: > 2.5 µM
--
compound: Cn1ncc2ccc(OC3CC3)c(NS(=O)(=O)c3cnn(-c4ccnc(C(F)(F)F)c4)c3)c21 [Compound I-55]
target: Avi-tagged FL MALT-1 (Homo sapiens (Human), UniProt Q9UDY8)
IC50: ≤ 0.4 µM
--
compound: O=S(=O)(Nc1cccc2cnn(C(F)F)c12)c1cnn(-c2cc(C(F)(F)F)ccn2)c1 [Compound I-239]
target: Avi-tagged FL MALT-1 (Homo sapiens (Human), UniProt Q9UDY8)
IC50: > 2.5 µM

// recorded IC50 for CCC(OC)c1ccnc(-n2cc(S(=O)(=O)Nc3cccc4cnn(C)c34)cn2)c1 (centres unmarked) [Compound I-297] : > 2.5 µM

// recorded IC50 for [2H]C([2H])([2H])n1ncc2cnc(OC)c(NS(=O)(=O)c3cnn(-c4cc(C(C)(F)F)ccn4)c3)c21 [Compound I-411] : ≤ 0.4 µM

// recorded IC50 for COc1ncc2cnn(C)c2c1NS(=O)(=O)c1cnn(-c2cc(N3CCC3)ccn2)c1 [Compound I-388] : 0.4 to 1 µM

// recorded IC50 for C[C@@H]1CN(c2ccnc(-n3cc(S(=O)(=O)Nc4cccc5cnn(C)c45)cn3)c2)C(=O)O1 [Compound I-320] : > 2.5 µM

// recorded IC50 for CC[C@](C)(OC)c1ccnc(-n2cc(S(=O)(=O)Nc3cccc4cnn(C)c34)cn2)c1 (stereo in doubt) [Compound I-313] : > 2.5 µM

// recorded IC50 for CC1CN(c2ccnc(-n3cc(S(=O)(=O)Nc4cccc5cnn(C)c45)cn3)c2)C1 [Compound I-356] : > 2.5 µM

// recorded IC50 for Cn1ncc2cccc(NS(=O)(=O)c3cnn(-c4cc(N5CC[C@H](F)C5)ccn4)c3)c21 [Compound I-429] : > 2.5 µM

// recorded IC50 for [2H]C([2H])([2H])n1ncc2ccc(OC)c(N(C)S(=O)(=O)c3cnn(-c4cc(C(F)(F)F)ccn4)c3)c21 [Compound I-336] : ≤ 0.4 µM

// recorded IC50 for Cc1ccnc(-n2cc(S(=O)(=O)N(C)c3cccc4[nH]nc(C)c34)cn2)c1 [Compound I-66] : > 2.5 µM
